# Assay Comment: qHTS of Trypanosoma Brucei Inhibitors: LOPAC Validation (AID 624147)
# Experimental Conditions: purified enzyme assay, luminescence, 45 min; series mostly up to 57.5 µM
Records with an inconclusive call do not appear. Activity calls are given as the source filed them. Calls follow the shape of the dose curve; as a rule, active = well fitted inhibition curve with a large enough effect; inconclusive = small, poorly fitted or top-dose-only effect; inactive = flat fitted curve, though single readings scatter. Residues, ends and D or L forms follow the SMILES beside them. *: point of attachment. Cbz = O=C(OCc1ccccc1)*
Result Type: outcome

Answered cases to consult:
Can you look up the measured outcome of O=c1cc(O)cc(/C=C/c2ccc(O)c(O)c2)o1 for me?
inactive

CCCCCC[C@@H]([C@@H](C)O)n1cnc2c(N)ncnc21 ?
inactive

Try this compound next: C/C(=C\c1ccc(C(=O)O)cc1)c1ccc2c(c1)C(C)(C)CCC2(C)C
inactive

What do you have for [Li+] ?
inactive

Cool, now CC1CCN(CC[C@H]2CCCN2S(=O)(=O)c2cccc(O)c2)CC1
inactive

New cases:
GET /values?readout=outcome&item= CCCCCCCCCCCCCCCCCCOC[C@H](COP(=O)([O-])OCC[N+](C)(C)C)OC
inactive

N[C@@H](CS(=O)O)C(=O)O , same question.
inactive

Okay, and O=C(O)C1=CCNCC1 ?
inactive

What do you get for NS(=O)(=O)c1cccc2c1c([N+](=O)[O-])cc1nc(O)c(O)nc12 ?
inactive

C=CCN1CCc2c(cc(O)c(O)c2Cl)C(c2ccccc2)C1 (stereo not drawn) ?
inactive

Same for CCCCCCCCCCC(C)(C)C(=O)Nc1c(OC)cc(OC)cc1OC
inactive

Now give it for c1ccc2nc(C3=NCCN3)ccc2c1 too.
inactive

Input CC(C)[C@H](NC(=O)OCc1ccccc1)C(=O)N[C@H](C=O)Cc1ccccc1 (Cbz-Val-Phe-aldehyde)
inactive

Entry CCCc1c(OCCCOc2ccc(OCC(=O)O)cc2)ccc(C(C)=O)c1O please
inactive

Request: CSc1nc(N)c2ncn([C@@H]3O[C@H](COP(=O)(O)OP(=O)(O)O)C(O)[C@H]3O)c2n1 (stereo partly drawn)
inactive

Item: CCCn1c(=O)c2[nH]c(-c3ccc(S(=O)(=O)O)cc3)nc2n(CCC)c1=O
inactive

// repeat for CCCn1c(=O)c2[nH]c(C3CCCC3)nc2n(CCC)c1=O and report
inactive

Entry to check: Cc1cccc(C)c1OCC(N)C(C)C (stereo not drawn)
inactive

Next: O[Si](CCCN1CCCCC1)(c1ccc(F)cc1)C1CCCCC1 (stereo not drawn)
inactive

---

# Assay Comment: qHTS Assay for Identifying Gametocytocidal Compounds (AID 743244);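 also: actives lower the fluorescent signal which means gametocytes are killed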
# Experimental Conditions: P. falciparum 3D7 stage III-V gametocytes, alamarBlue, 72 h; hits give low values
# Text: Malaria cases and deaths have dropped 50% in 29 countries since 2000 due to the combined effects of long-lasting insecticidal bednets, indoor residual spraying, and artemisinin-based combination therapies (ACTs). […] Within live cells, the nonfluorescent resazurin is reduced to resorufin, a bright red fluorescence dye. Fluorescence decreases upon treatment of gametocytocidal compounds. […]
Records with an inconclusive call do not appear.
Exam item: assign True to entries whose max response is below 10% and False to entries at or above 10%. Note that a value of exactly 10% receives False.

Known results for compounds:
Determine whether this compound shows max response lower than 10% (ties excluded): Cn1ccnc1
False

Please do the same for CC[N+](CC)(CC)CC(=O)Nc1c(C)cccc1C as well.
False

Try this compound too: CCCCCCCCCCC(C)(C)C(=O)Nc1c(OC)cc(OC)cc1OC
True

Entry to check: CC(=O)NCCc1c[nH]c2ccc(O)cc12
False

Can you handle NC(=O)CC[C@H](N)C(=O)O next?
True

Query Oc1cc(O)c2c(c1)O[C@H](c1ccc(O)c(O)c1)[C@@H](O)C2 next
True

Same lookup for CCCCCCCCCC[Si](C)(C)CCC(=O)NC(Cc1ccc(C)cc1)c1ccccc1 (configuration not stated) , please.
False

// repeat for NC(N)=NC(N)=Nc1cccc(Cl)c1 and report
False

Others:
Consider CC1=C(C(=O)O)N2C(=O)[C@@H](NC(=O)C(N)C3=CCC=CC3)[C@H]2SC1 (some centres not stated) . Does its max response lie strictly below 10%?
True

Follow-up entry: NC(C(=O)N[C@@H]1C(=O)N2C(C(=O)O)=C(Cl)CS[C@H]12)c1ccccc1 (some centres not stated)
True

Now give it for CC[C@H](NC(=O)c1c(C)c(-c2ccccc2)nc2ccccc12)c1ccccc1 too.
True

Now consider COc1ccc2c(c1)c(CC(=O)O)c(C)n2C(=O)c1ccccc1 and answer again.
False

Entry to check: CN(C)S(=O)(=O)c1ccc2c(c1)/C(=C/c1cc3c([nH]1)CCCC3)C(=O)N2
True

Follow-up item: CN1CCN(c2nc3cc(C(F)(F)F)ccc3n3cccc23)CC1
False

Can you handle Nc1nc2c(cnn2CCc2ccccc2)c2nc(-c3ccco3)nn12 next?
True

How about this compound: O=C(O)c1cc2cc(F)ccc2[nH]1
True

Continue with CN1CCC2(CCN3CCc4c(oc5ccccc45)C3C2)N(C)C1=O (configuration not stated)
False

Also COc1cccc(OC)c1OCCNCC1CSc2ccccc2O1 (configuration not stated) , if possible.
True

C#CCn1c(=O)c2c(ncn2C)n(C)c1=O , same question.
True

Likewise for CCCC(=O)NCCc1c2n(c3ccc(OC)cc13)CCCc1ccccc1-2 ?
False

Another compound: CC(=O)/C(C)=N/O
True

Another compound: C=C1C[C@@]23CC[C@H]4[C@@](C)(CCC[C@@]4(C)C(=O)O)[C@@H]2CC[C@]1(O)C3
False
